- TEST_SYSTEM: T1, full-length human CTLA4 expressed on cells (human, UniProt P16410 36-223)
- T1 construct: whole, on cells; also called HEK293F/hCTLA-4 cells; HEK293F/hCTLA4 cells
- T1 sequence (looked up): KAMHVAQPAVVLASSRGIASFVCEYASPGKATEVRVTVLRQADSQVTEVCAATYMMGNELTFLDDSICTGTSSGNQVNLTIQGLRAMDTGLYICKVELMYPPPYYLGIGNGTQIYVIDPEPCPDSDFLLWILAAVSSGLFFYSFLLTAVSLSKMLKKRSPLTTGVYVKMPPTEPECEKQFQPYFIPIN
- ASSAY_PROTOCOL: flow cytometry blocking: HEK293F cells with human CTLA4, 100 nM antibody, then 100 nM CD86-Fc-Bio (blocked ligand); PBSA panel: Mean 10678, 12.2%
VALUE_KIND: Mean of the CD86 binding signal in the presence of the antibody
Answers are plain numbers.

Reference set, count: 3
TY21585 (antibody, V domains shown, human IgG1 (hIgG1) from Fab hit B15709) VH: EVQLVESGGGLVQPGGSLRLSCAASGFTFSDYAIHWVRQAPGKGLEWIGIISPSSGSTNYAQKFQGRVTISRDNSKNTLYLQLNSLRAEDTAVYYCARDIHSGSSGYYYGFDVWGQGTLVTVSS VL: DIQLTQSPSSLSASVGDRVTITCRASESVDFFGISFLAWYQQKPGKAPKLLIYDASNRATGIPSRFSGSGSGTDFTLTISSLQPEDFATYYCQHYTSSPPVYTFGQGTKVEIK
5140
TY21591 (antibody, V domains shown, human IgG1 (hIgG1) from Fab hit B15756) VH: EVQLVESGGGLVQPGGSLRLSCAASGFSLSTGGVAVSWIRQAPGKGLEWIGEIYHSGSTYYSPSLKSRVTISRDNSKNTLYLQLNSLRAEDTAVYYCARRIATATYFDYWGQGTLVTVSS VL: DIQLTQSPSSLSASVGDRVTITCRASQTVFSRYLAWYQQKPGKAPKLLIYDASNRATGIPSRFSGSGSGTDFTLTISSLQPEDFATYYCQQSYYWPPWTFGQGTKVEIK
4960
TY21589 (antibody, V domains shown, human IgG1 (hIgG1) from Fab hit B15740) VH: EVQLVESGGGLVQPGGSLRLSCAASGFTFSDYWIHWVRQAPGKGLEWIGWISPSGGGTKYAQKFQGRVTISRDNSKNTLYLQLNSLRAEDTAVYYCARGAYEFDYWGQGTLVTVSS VL: DIQLTQSPSSLSASVGDRVTITCRASQSVSSRFLAWYQQKPGKAPKLLIYDASNRATGIPSRFSGSGSGTDFTLTISSLQPEDFATYYCQQSYPTPLTFGQGTKVEIK
6660

# context switch: different binder, same Mean of the CD86 binding signal in the presence of the antibody
(Q) Data request, read-out Mean of the CD86 binding signal in the presence of the antibody, for TY21587 (antibody, V domains shown, human IgG1 (hIgG1) from Fab hit B15722) VH: EVQLVESGGGLVQPGGSLRLSCAASGFTFSDYGIHWVRQAPGKGLEWIGEIYHSGSTYYSPSLKSRVTISRDNSKNTLYLQLNSLRAEDTAVYYCARDVAPGSSGYYDGFDFWGQGTLVTVSS VL: DIQLTQSPSSLSASVGDRVTITCRASQGIGSSLAWYQQKPGKAPKLLIYDASNRATGIPSRFSGSGSGTDFTLTISSLQPEDFATYYCQQYDQWPPWTFGQGTKVEIK
(A) 5710
